# tested target: mSec18 (monomeric Sec18; Sec18His8) (Saccharomyces cerevisiae, UniProt P18759)
# Sequence (P18759 whole entry): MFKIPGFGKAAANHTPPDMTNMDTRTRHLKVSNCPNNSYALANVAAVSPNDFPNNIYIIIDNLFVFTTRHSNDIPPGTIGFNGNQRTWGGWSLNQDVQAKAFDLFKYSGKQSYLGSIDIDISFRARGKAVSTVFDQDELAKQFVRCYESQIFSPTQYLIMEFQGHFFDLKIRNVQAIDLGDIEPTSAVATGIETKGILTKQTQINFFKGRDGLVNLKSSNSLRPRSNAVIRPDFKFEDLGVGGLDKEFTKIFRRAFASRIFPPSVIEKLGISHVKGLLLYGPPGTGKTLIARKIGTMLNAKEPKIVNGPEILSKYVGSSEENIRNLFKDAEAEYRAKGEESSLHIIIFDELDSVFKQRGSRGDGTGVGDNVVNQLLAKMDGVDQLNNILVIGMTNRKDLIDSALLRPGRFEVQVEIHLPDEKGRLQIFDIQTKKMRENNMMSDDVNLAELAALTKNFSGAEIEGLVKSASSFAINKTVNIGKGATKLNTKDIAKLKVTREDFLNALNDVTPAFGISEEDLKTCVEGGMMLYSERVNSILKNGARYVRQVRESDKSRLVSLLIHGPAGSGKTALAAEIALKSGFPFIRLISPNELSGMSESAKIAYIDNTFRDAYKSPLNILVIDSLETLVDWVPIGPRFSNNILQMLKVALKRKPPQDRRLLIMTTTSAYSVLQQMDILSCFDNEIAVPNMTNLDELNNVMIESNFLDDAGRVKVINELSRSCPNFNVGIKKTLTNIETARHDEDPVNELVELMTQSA
# procedure summary: microscale thermophoresis

| molecule | Kd |
| --- | --- |
| Nc1ncnc2c1ncn2[C@@H]1O[C@H](COP(=O)(O)OP(=O)(O)OP(=O)(O)O)[C@@H](O)[C@H]1O [ATP] | 56 µM |
